B1: library; numbered along this chain (parent)
chain: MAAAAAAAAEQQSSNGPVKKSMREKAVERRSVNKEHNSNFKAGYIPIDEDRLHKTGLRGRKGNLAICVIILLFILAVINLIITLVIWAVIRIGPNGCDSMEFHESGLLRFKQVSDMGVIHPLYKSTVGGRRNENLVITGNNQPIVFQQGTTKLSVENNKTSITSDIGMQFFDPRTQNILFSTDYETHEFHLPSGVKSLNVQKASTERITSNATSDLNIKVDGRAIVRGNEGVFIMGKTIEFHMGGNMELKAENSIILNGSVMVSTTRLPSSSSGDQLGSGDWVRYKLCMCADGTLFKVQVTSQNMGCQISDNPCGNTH

Variants of: B1
PROTOCOL_DETAILS: SGCB cell-surface expression functional score (HA stain, bin4 vs bin1, normalised to synonymous) (log10 ratio); higher = more cell-surface SGCB (functional)
REPORTED_ENDPOINT: SGCB cell-surface expression functional score (log10)
# answer = number (no unit)

See these solved cases before continuing.
[
  {
    "VARIANT_IDENTIFIER": "Q147E",
    "RESULT": 0.33
  },
  {
    "VARIANT_IDENTIFIER": "G149F",
    "RESULT": -0.45
  },
  {
    "VARIANT_IDENTIFIER": "E206W",
    "RESULT": 0.91
  },
  {
    "VARIANT_IDENTIFIER": "R29D",
    "RESULT": -0.22
  },
  {
    "VARIANT_IDENTIFIER": "T182E",
    "RESULT": -1.6
  },
  {
    "VARIANT_IDENTIFIER": "V300D",
    "RESULT": -0.2
  }
]

What measured SGCB cell-surface expression functional score (log10) goes with L57Q ?
-0.03

What measured SGCB cell-surface expression functional score (log10) goes with I234H ?
-1.04
